# Test system: NCI-H1734
# EXPERIMENT_SUMMARY: relative viability (nuclei count vs DMSO), 5 days (fraction); higher = more cells survive
# MEASUREMENT_SETUP: first compound 0.8 µM
relative viability values by entry
The response must contain the number and no unit.

COc1nc(C)cnc1NS(=O)(=O)c1cccnc1-c1ccc(-c2nnco2)cc1 [Zibotentan] + CC(=O)Nc1cccc(-n2c(=O)n(C3CC3)c(=O)c3c(Nc4ccc(I)cc4F)n(C)c(=O)c(C)c32)c1 [Trametinib] (partner 0.02 µM) ... 0.647

Q) GET /values?readout=relative viability&item= COc1nc(C)cnc1NS(=O)(=O)c1cccnc1-c1ccc(-c2nnco2)cc1 [Zibotentan] + CC1(C)CCC(c2ccc(Cl)cc2)=C(CN2CCN(c3ccc(C(=O)NS(=O)(=O)c4ccc(N[C@H](CCN5CCOCC5)CSc5ccccc5)c(S(=O)(=O)C(F)(F)F)c4)cc3)CC2)C1 [Navitoclax] (partner 0.5 µM)
A) 0.822

Q) And COc1nc(C)cnc1NS(=O)(=O)c1cccnc1-c1ccc(-c2nnco2)cc1 [Zibotentan] + Nc1ncn([C@H]2C[C@H](O)[C@@H](CO)O2)c(=O)n1 [Decitabine] (partner 2 µM) ?
A) 0.513

Q) And O=c1cc(-c2cccc3c2Sc2ccccc2S3)oc(N2CCOCC2)c1 + CS(=O)(=O)N1CCN(Cc2cc3nc(-c4cccc5[nH]ncc45)nc(N4CCOCC4)c3s2)CC1 [Pictilisib] (partner 1 µM) ?
A) 0.465

Q) And O=c1cc(-c2cccc3c2Sc2ccccc2S3)oc(N2CCOCC2)c1 + Nc1nc2[nH]cc(CCc3ccc(C(=O)N[C@@H](CCC(=O)O)C(=O)O)cc3)c2c(=O)[nH]1 [Pemetrexed] (partner 0.2 µM) ?
A) 0.487

Q) And O=c1cc(-c2cccc3c2Sc2ccccc2S3)oc(N2CCOCC2)c1 + CCNC(=O)c1noc(-c2cc(C(C)C)c(O)cc2O)c1-c1ccc(CN2CCOCC2)cc1 [Luminespib] (partner 0.01 µM) ?
A) 0.228

Q) And COc1nc(C)cnc1NS(=O)(=O)c1cccnc1-c1ccc(-c2nnco2)cc1 [Zibotentan] + O=C(c1cc(Cc2n[nH]c(=O)c3ccccc23)ccc1F)N1CCN(C(=O)C2CC2)CC1 [Olaparib] (partner 8 µM) ?
A) 0.653
